Target: acidic sphingomyelinase (aSMase) (Homo sapiens)
Construct: endogenous in cells; host or cells: HT 29 (human adenocarcinoma cell line)
Sequence (P17405 47-631): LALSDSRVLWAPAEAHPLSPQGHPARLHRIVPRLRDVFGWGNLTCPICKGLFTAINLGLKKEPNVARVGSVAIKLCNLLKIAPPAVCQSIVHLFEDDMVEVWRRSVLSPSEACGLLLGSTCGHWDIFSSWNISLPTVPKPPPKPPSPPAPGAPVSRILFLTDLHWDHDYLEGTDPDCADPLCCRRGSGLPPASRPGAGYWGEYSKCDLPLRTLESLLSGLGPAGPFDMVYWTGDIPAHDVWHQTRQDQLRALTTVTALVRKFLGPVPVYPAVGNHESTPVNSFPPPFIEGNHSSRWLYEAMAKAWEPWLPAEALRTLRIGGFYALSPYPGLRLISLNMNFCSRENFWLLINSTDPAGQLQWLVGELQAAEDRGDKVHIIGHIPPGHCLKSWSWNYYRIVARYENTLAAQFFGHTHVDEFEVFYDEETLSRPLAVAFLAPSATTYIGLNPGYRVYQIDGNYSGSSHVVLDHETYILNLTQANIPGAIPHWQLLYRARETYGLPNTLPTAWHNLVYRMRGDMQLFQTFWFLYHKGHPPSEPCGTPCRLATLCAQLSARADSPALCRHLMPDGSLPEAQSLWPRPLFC
Test: SMase activity determination (activation of aSMase in cells, NBD-sphingomyelin hydrolysis)
Type: cell-based
Settings: 5 μM; HT 29 cells; mean (MW); basal activity 278,4 ± 41,3; unit only printed
quantity_measured: aSMase-activity 5 μM MW

[
  {
    "compound": "CC(C)(C)OC(=O)N1[C@H]([C@H](O)C2=CCCC2)COC1(C)C [Compound 4]",
    "experimental_result": "574,2 pmolµg^-1min^-1"
  }
]

Qu. GET /values?readout=aSMase-activity 5 μM MW&item= CCCCCCCCCCCCC/C=C/[C@@H](O)[C@H](CO)NC(=O)CCCCC [Ceramide C6, reference compound]
Ans. 427,3 pmolµg^-1min^-1

Qu. GET /values?readout=aSMase-activity 5 μM MW&item= CCCCCC(=O)N[C@@H](CO)[C@@H](O)c1ccc([N+](=O)[O-])cc1 [Compound 1]
Ans. 541,3 pmolµg^-1min^-1

Qu. GET /values?readout=aSMase-activity 5 μM MW&item= CCCCCC(=O)N[C@@H](CO)[C@H](O)C1=CCCC1 [Compound 2]
Ans. 347,0 pmolµg^-1min^-1

Qu. GET /values?readout=aSMase-activity 5 μM MW&item= CC(C)(C)OC(=O)N1[C@H]([C@H](O)/C2=C/CCCCCC2)COC1(C)C [Compound 5]
Ans. 447,3 pmolµg^-1min^-1

Qu. GET /values?readout=aSMase-activity 5 μM MW&item= CCCCCC(=O)N[C@@H](CO)[C@H](O)/C1=C/CCCCCC1 [Compound 3]
Ans. 403,8 pmolµg^-1min^-1
